biological target: MAP3K4 (Homo sapiens, UniProt Q9Y6R4)
Sequence (Q9Y6R4 whole entry): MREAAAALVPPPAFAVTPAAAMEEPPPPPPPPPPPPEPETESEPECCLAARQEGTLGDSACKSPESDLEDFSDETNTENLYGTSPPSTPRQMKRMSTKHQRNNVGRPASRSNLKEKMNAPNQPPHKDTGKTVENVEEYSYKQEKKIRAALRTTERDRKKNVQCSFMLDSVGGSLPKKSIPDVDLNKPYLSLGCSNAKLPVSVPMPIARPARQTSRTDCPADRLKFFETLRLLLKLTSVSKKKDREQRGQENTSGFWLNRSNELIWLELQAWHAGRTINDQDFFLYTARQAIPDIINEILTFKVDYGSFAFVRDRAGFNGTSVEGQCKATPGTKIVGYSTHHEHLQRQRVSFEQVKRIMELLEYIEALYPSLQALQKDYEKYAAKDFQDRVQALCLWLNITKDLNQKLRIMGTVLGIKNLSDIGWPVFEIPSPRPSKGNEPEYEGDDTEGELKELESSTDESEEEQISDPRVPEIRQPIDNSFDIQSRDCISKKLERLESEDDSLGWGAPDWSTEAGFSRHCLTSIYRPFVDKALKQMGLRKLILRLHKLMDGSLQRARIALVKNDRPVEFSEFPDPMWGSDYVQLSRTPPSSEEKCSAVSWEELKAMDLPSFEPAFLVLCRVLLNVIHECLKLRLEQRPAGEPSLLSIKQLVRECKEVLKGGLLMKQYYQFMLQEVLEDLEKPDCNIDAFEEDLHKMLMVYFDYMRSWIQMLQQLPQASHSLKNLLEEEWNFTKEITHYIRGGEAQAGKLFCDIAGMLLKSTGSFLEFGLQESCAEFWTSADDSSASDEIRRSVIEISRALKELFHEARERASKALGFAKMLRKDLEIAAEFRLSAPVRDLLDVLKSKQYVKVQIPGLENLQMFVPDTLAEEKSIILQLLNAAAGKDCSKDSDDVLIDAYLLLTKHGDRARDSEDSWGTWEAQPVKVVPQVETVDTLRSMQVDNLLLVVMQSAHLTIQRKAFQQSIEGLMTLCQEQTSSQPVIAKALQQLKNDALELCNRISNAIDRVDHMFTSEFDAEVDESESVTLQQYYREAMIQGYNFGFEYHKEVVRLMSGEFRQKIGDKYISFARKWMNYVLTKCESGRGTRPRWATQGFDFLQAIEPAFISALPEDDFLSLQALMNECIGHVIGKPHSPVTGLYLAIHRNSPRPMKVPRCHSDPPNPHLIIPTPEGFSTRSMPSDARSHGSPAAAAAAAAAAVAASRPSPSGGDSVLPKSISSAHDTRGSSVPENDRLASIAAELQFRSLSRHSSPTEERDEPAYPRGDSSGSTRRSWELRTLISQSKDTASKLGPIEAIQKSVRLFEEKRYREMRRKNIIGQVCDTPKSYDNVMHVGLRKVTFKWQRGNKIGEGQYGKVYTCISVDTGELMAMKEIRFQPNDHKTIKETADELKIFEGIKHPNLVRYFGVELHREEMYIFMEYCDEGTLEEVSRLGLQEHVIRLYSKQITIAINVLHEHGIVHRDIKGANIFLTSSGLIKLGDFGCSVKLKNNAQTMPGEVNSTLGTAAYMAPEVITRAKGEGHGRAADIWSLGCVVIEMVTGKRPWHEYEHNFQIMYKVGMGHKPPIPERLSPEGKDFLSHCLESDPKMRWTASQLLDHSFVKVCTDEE
PROPERTY_LABEL: pIC50
One number for each entry, as −log10 of the molar value.

Input line: Determine from records and report pIC50 for CN(C)CC(O)COc1ccc(Nc2ncc([N+](=O)[O-])c(Nc3ccccc3O)n2)cc1.O=C(O)C(F)(F)F (centres unmarked)
Output line: 6.08

* * *

target: MAPKAPK5 (Homo sapiens, UniProt Q8IW41)
Sequence (Q8IW41 whole entry): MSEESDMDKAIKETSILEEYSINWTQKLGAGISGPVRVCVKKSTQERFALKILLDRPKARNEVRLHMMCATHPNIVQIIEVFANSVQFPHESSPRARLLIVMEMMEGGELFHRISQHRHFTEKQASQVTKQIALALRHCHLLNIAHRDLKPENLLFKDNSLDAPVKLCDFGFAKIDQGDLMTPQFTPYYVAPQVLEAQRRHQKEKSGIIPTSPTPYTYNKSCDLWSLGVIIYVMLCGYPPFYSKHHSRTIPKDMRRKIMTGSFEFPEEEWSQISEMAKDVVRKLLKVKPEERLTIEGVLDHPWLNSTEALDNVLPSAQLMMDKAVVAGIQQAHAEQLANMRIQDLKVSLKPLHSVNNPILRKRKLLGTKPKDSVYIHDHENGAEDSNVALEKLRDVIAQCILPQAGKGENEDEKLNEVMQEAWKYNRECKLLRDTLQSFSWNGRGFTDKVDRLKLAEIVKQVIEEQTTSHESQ
PROPERTY_LABEL: IC50 (nM)
Give bare numbers, in nM.

Input line: Return IC50 for the following molecule: CN(C)CC(O)COc1ccc(Nc2ncc([N+](=O)[O-])c(Nc3ccccc3O)n2)cc1.O=C(O)C(F)(F)F (centres unmarked)
Output line: 320

* * *

target: PRKCA (Homo sapiens); test: biochemical; conditions: read-out: KDapp
PROPERTY_LABEL: pKd
Give bare numbers, as −log10 of the molar value.

Input line: Please give the documented pKd of CN1CCN(c2ccc(Nc3ncc(C#N)c(Nc4ccccc4C(N)=O)n3)cc2)CC1.Cl
Output line: 6.41

* * *

biological target: ITK (Homo sapiens, UniProt Q08881); test: biochemical; settings: read-out: KDapp
Sequence (Q08881 whole entry): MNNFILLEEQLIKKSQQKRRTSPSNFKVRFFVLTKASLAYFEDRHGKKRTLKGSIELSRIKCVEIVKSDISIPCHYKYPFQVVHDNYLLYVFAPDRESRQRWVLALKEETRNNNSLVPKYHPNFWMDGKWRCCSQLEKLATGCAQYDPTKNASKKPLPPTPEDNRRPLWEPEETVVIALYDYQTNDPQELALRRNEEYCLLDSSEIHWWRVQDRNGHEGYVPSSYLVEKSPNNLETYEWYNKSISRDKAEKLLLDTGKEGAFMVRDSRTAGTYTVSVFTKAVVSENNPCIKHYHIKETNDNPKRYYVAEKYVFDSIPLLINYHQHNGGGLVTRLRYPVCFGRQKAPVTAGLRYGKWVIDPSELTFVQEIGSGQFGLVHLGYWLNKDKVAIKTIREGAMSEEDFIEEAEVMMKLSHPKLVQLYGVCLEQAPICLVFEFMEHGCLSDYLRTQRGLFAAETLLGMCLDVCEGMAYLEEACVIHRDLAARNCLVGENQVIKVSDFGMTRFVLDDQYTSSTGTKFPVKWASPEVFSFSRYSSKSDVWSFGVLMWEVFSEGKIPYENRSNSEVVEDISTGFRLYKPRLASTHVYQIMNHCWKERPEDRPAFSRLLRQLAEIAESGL
PROPERTY_LABEL: Kd (nM)
Numbers only, in nM.

{"MOLECULE": "CN(C)CC(O)COc1ccc(Nc2ncc([N+](=O)[O-])c(Nc3ccccc3O)n2)cc1.O=C(O)C(F)(F)F (centres unmarked)", "Kd (nM)": 470}

Here's the next entry for you.
Input line: Look up Kd of CN1CCN(c2ccc(Nc3ncc(C#N)c(Nc4ccccc4C(N)=O)n3)cc2)CC1.Cl and report it.
Output line: 38.7

* * *

target: TGFBR1 (Homo sapiens, UniProt P36897)
Sequence (P36897 whole entry): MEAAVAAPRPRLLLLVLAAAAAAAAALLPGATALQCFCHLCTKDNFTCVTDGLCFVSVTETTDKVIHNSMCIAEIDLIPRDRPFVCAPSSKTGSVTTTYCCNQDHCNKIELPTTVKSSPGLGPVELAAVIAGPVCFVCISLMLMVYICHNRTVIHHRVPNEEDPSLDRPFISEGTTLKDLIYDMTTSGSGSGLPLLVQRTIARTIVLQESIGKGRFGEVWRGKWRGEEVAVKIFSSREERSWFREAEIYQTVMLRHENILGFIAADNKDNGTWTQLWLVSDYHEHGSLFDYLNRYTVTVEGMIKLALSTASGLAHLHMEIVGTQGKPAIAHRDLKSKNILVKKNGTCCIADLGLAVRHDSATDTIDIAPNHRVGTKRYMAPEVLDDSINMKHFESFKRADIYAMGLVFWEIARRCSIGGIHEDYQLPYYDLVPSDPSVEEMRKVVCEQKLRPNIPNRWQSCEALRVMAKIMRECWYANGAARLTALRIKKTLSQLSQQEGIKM
pIC50: −log10 of the molar value.
PROPERTY_LABEL: pIC50

Input line: Indicate the recorded pIC50 value for this compound: CN(C)CC(O)COc1ccc(Nc2ncc([N+](=O)[O-])c(Nc3ccccc3O)n2)cc1.O=C(O)C(F)(F)F (stereo not shown) [TCMDC-141399]
Output line: < 4.70

* * *

target: UniProtKB Q02750
Sequence (Q02750 whole entry): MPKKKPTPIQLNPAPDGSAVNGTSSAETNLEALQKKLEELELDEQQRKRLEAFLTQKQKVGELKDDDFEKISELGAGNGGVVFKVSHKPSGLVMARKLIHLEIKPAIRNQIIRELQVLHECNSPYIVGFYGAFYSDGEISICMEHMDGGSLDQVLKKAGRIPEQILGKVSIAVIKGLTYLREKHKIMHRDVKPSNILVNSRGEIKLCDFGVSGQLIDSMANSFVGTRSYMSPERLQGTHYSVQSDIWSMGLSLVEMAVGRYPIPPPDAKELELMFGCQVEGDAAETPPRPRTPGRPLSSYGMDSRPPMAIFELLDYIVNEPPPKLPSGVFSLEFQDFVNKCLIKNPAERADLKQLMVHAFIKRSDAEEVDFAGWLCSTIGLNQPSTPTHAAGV
PROPERTY_LABEL: IC50

Input line: Given the compound CN(C)CC(O)COc1ccc(Nc2ncc([N+](=O)[O-])c(Nc3ccccc3O)n2)cc1.O=C(O)C(F)(F)F (stereo not shown) , write its reported IC50.
Output line: > 20 µM

* * *

Target sequence: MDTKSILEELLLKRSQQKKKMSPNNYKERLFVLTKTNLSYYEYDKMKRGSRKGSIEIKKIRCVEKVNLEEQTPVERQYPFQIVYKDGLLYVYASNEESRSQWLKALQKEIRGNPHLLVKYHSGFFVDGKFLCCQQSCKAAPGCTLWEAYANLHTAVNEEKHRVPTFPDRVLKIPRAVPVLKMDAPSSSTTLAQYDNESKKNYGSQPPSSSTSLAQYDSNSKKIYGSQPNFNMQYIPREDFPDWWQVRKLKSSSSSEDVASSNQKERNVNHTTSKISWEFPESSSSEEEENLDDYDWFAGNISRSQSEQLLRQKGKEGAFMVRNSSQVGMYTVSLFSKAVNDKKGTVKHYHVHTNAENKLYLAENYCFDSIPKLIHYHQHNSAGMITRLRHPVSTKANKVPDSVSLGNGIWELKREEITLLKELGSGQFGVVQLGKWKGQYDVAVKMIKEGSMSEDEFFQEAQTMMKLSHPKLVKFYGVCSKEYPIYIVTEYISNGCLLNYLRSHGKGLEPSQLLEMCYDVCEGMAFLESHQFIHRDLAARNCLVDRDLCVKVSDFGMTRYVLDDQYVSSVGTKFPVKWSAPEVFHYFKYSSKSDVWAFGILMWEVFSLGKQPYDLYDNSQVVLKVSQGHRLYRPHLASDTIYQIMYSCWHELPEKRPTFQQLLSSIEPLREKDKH
PROPERTY_LABEL: pIC50
Answers are plain numbers, as −log10 of the molar value.

Input line: Note pIC50 for the compound shown: CN1CCN(c2ccc(Nc3ncc(C#N)c(Nc4ccccc4C(N)=O)n3)cc2)CC1.Cl [TCMDC-134116]
Output line: 6.21

* * *

biological target: UniProtKB P50750
Sequence (P50750 whole entry): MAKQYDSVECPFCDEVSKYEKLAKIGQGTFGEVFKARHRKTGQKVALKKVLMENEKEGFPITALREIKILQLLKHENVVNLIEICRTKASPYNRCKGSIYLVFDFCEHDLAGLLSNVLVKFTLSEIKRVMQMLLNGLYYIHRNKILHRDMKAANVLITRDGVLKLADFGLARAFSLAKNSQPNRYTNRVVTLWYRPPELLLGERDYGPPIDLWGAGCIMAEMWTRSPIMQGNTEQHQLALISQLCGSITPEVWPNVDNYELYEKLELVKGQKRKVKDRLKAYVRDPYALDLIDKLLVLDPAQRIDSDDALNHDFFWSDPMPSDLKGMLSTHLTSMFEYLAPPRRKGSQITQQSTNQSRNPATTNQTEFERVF
pIC50: −log10 of the molar value.
PROPERTY_LABEL: pIC50

Input line: Write down pIC50 measured for item Cl.NCC1(c2nc(-c3ccc(Cl)c(O)c3)c(-c3ccncc3)[nH]2)CCCCC1
Output line: < 4.70

* * *

Biological target: Plasmodium falciparum calcium-dependent protein kinase 1 (CDPK1) (Plasmodium falciparum)
Construct: 6-Histidine (N); made in house
Sequence (P62344 whole entry): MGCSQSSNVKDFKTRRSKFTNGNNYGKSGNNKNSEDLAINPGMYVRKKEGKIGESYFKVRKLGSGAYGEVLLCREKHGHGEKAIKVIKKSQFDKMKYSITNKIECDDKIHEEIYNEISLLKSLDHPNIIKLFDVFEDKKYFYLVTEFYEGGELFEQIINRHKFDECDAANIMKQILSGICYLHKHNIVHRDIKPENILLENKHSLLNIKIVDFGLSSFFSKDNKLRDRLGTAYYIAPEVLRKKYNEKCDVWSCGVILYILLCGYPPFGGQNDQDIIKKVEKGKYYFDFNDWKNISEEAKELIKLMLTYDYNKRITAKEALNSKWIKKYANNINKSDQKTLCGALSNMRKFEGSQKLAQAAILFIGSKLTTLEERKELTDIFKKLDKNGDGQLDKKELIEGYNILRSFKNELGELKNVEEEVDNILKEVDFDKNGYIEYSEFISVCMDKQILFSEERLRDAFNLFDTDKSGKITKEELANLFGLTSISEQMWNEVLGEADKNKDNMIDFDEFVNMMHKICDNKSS
Test: CDPK1 Kinase-Glo ATP-consumption screen and dose-response
Type: biochemical
Conditions: hits below 1 uM; read-out: CDPK1 IC50
Protocol: Biochemical assays were performed in white 384-well plates (Nunc). Liquid transfers were done manually with 8-channel pipets. Compounds were initially tested in a single-point screen (final concentration 1 μM). […] The catalytic activity of each kinase was considered proportional to ATP consumed, as determined from measurements of residual [ATP] with the luciferase-based reagent Kinase-Glo (Promega) following incubation. […]
pIC50: −log10 of the molar value.
Values of pIC50 greater than or equal to 7 map to YES; values below map to NO.

Check out these entries, answers already filled in.
{"COMPOUND": "Cl.NCC1(c2nc(-c3ccc(Cl)c(O)c3)c(-c3ccncc3)[nH]2)CCCCC1 [TCMDC-141154]", "CATEGORY_LABEL": "YES"}
{"COMPOUND": "CC(C)(CNCc1ccc(F)c(F)c1)c1nc(-c2ccc(Cl)c(O)c2)c(-c2ccncc2)[nH]1.Cl [TCMDC-140672]", "CATEGORY_LABEL": "NO"}
{"COMPOUND": "CCn1c(-c2nonc2N)nc2c(-c3cccc(NC(=O)Nc4ccccc4OC)c3)ncc(OCCCN)c21.O=C(O)C(F)(F)F [TCMDC-136190]", "CATEGORY_LABEL": "YES"}

Proceed to the following item.
Input line: Reported pIC50 reaches at least 7 for CS(=O)(=O)Cc1ccc(Nc2nccc(-c3c(-c4cccc(NC(=O)c5c(F)cccc5F)c4)nn4ccccc34)n2)cc1 [TCMDC-135669] ?
Output line: YES

* * *

Target sequence: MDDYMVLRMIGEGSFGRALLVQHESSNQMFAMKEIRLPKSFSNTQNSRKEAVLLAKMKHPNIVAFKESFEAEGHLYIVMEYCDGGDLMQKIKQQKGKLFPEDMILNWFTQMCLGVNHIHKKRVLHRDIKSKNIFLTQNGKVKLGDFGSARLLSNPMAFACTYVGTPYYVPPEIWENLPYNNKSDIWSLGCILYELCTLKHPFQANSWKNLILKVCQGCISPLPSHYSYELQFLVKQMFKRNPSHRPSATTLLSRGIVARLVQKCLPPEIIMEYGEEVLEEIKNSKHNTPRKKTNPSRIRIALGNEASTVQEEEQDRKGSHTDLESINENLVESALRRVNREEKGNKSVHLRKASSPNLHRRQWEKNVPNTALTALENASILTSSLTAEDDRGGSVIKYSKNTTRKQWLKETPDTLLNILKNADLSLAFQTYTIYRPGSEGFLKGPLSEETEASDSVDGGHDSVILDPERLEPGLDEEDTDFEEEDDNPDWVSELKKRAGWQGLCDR
PROPERTY_LABEL: IC50 (nM)
One number for each entry, in nM.

Input line: Entry CN1CCN(c2ccc(Nc3ncc(C#N)c(Nc4ccccc4C(N)=O)n3)cc2)CC1.Cl [TCMDC-134116] needs its IC50 filled in; supply it.
Output line: 1100

* * *

Biological target: TNK1 (Homo sapiens)
Sequence (Q13470 1-666): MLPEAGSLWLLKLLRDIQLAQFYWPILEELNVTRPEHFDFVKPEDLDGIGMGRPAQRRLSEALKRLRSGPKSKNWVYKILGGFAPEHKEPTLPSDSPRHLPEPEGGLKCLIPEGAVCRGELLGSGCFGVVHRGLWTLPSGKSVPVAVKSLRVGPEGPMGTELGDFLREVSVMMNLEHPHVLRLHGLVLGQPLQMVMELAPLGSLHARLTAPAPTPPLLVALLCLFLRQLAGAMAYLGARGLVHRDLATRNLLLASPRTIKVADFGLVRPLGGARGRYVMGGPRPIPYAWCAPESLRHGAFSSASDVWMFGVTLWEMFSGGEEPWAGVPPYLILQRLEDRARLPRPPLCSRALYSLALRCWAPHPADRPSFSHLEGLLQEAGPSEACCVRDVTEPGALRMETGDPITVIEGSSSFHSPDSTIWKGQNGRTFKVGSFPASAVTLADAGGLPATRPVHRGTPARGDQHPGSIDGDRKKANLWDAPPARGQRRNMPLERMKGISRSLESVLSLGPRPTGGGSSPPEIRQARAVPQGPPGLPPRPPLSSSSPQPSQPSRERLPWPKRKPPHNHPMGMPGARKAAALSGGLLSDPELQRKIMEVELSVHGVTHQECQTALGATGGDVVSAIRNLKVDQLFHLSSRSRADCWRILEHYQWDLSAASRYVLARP
PROPERTY_LABEL: IC50

{"MOLECULE": "CN1CCN(c2ccc(Nc3ncc(C#N)c(Nc4ccccc4C(N)=O)n3)cc2)CC1.Cl", "PROPERTY_LABEL": "IC50", "ASSAY_VALUE": "≤ 0.032 µM"}

Now for a further compound.
Input line: Assign IC50 to the following record: Cl.NCC1(c2nc(-c3ccc(Cl)c(O)c3)c(-c3ccncc3)[nH]2)CCCCC1
Output line: > 20 µM
